# credit: PubChem BioAssay (NCI)

- Test system: MDA-MB-435
- assay_overview: NCI tumour cell line growth inhibition, 48 h
Listed next: entries and their corresponding TGI.

Solved cases below.
| compound | target_or_system | result_value |
| --- | --- | --- |
| O=[N+]([O-])/C=C/c1cn(CCCCCCCCCCCCn2cc(/C=C/[N+](=O)[O-])c3ccccc32)c2ccccc12 | MDA-MB-435 | > 100 µM |
| C=C1C(=O)O[C@H]2[C@H]1CC/C(COC(=O)NCc1c[nH]c3ccc(F)cc13)=C\CC[C@@]1(C)O[C@@H]21 | MDA-MB-435 | 3.1 µM |

The reported TGI of the compound CCC(C)N1CN(c2ccccc2)C2(CCN(CCCSc3ccc(F)cc3)CC2)C1=O (centres undefined) was 11.7 µM

---

- System: A549 NSCLC
- assay_overview: NCI tumour cell line growth inhibition, 48 h
quantity_kind: GI50

The reported GI50 of the compound C=CC(=O)N[C@@H](/C=C/C(=O)OCC)Cc1ccc(-c2cc(Cl)cc(Cl)c2)cc1 was 17.7 µM

The reported GI50 of the compound N#C/C(=C\c1cc2ccc(N3CCC3)cc2oc1=O)C(=O)N(CC(=O)O)CC(=O)O was > 100 µM

---

- Tested on: NCI-H23 lung
- assay_overview: NCI tumour cell line growth inhibition, 48 h; in the data active means GI50 below about 0.43 µM; inactive means the rest
The categories you may choose from are T (active), F (inactive)

Record excerpt, results attached:
| compound | target_or_system | label_class |
| --- | --- | --- |
| CC(=O)OCC(CC[CH2][Sn]([Cl])([Cl])[c]1ccccc1)OC(C)=O (centres undefined) | NCI-H23 lung | F |
| c1ccc2c(CNCCN3CCNCC3)c3ccccc3c(CNCCN3CCNCC3)c2c1 | NCI-H23 lung | F |
| COC1=C(OC)[C@]2(OC)c3c(O)c(OC)c4c(c3O[C@@]23O[C@@H](c2ccccc2)CC=C3C1=O)[C@@H](OC)C[C@H](c1ccccc1)O4 | NCI-H23 lung | T |
| c1ccc(C2CCCCC2)c(OCCCCCN2CCNCC2)c1 | NCI-H23 lung | F |
| CCN(Cc1ccc(F)cc1)c1ccc(CO)c(C(F)(F)F)c1 | NCI-H23 lung | F |
| CC1CCC2C(CN(CC3=C(C(F)(F)F)OC4OC5(C)CCC6C(C)CCC3C46OO5)CC3=C(C(F)(F)F)OC4OC5(C)CCC6C(C)CCC3C46OO5)=C(C(F)(F)F)OC3OC4(C)CCC1C32OO4 (centres undefined) | NCI-H23 lung | F |

Req: Called result for CC(=O)N(O)c1ccc(/C=C/c2ccccc2)cc1
Resp: F

Req: Called result for COc1ccc2nc3cc(Cl)ccc3c(N3CCN(c4ccnc(N5CCN(C)CC5)n4)CC3)c2c1
Resp: F

Req: Called result for C=CC[N+]1(CC)CCN=C1CCCCCCCCCCCCCCCCC (centres undefined)
Resp: T

---

- System: UACC-257 melanoma
- assay_overview: NCI tumour cell line growth inhibition, 48 h
quantity_kind: GI50

Solved cases below.
| compound | GI50 |
| --- | --- |
| N#Cc1cc2c(cc1Cl)Sc1nnc(Nc3cccc4ccccc34)n1S2(=O)=O | 14.8 µM |
| COc1ccc2c(c1)C(=O)c1c-2c(=O)n(CCCN(C)C)c2cc(OC)c(OC)cc12 | 16.9 µM |
| C=C1C(=O)O[C@H]2[C@H]1CC/C(COC(=O)NCc1c[nH]c3ccc(F)cc13)=C\CC[C@@]1(C)O[C@@H]21 | 1.69 µM |
| CC1SC(c2ccc(Cl)cc2)N(CCc2cccs2)C1=O (stereo not given) | 1.99 µM |

Let us examine a further case.
The reported GI50 of the compound C[C@@H](NC(=O)c1ccc(F)cc1)c1ccc2c(c1)CCN2C(=O)C1CCOCC1 was > 100 µM
